- Test system: Rhesus monkey
- assay.info: Plasma concentration after 3 mg/kg peroral dosing in Rhesus monkey at 0.167 hr
- Assay type: ADME, organism-based, Macaca mulatta
- Set-up: dose 3 mg/kg, route oral
- measurement.parameters: in vivo, po
measurement.kind: Concentration (ng/mL)
Return type: number; implicit unit ng/mL.

q: Can you look up Concentration on Rhesus monkey for `O=c1[nH]nc(CN2CCC[C@H](OCc3cc(C(F)(F)F)cc(C(F)(F)F)c3)[C@@H]2c2ccccc2)[nH]1` ?
a: 20

====

- System: Rhesus monkey
- assay.info: Plasma concentration after 3 mg/kg intravenous dosing in Rhesus monkey at 0.5 hr
- Format: ADME, organism-based, Macaca mulatta
- Parameters: dose 3 mg/kg, route intravenous
- measurement.parameters: in vivo
measurement.kind: Concentration

q: Fill in: Concentration of `O=c1[nH]nc(CN2CCC[C@H](OCc3cc(C(F)(F)F)cc(C(F)(F)F)c3)[C@@H]2c2ccccc2)[nH]1` is ___
a: 5020 ng/mL

====

- Tested on: Rattus norvegicus
- assay.info: Plasma concentration after 3 mg/kg peroral dosing in rat at 8 hr
- Type: ADME, organism-based
- Design: dose 3 mg/kg, route oral
- measurement.parameters: in vivo, po
measurement.kind: Concentration

q: Fill in: Concentration of `FC(F)(F)c1cc(CO[C@H]2CCCN(Cc3nnc[nH]3)[C@H]2c2ccccc2)cc(C(F)(F)F)c1` is ___
a: < 10 ng/mL

====

- Tested on: Rattus norvegicus
- assay.info: Plasma concentration after 3 mg/kg peroral dosing in rat at 6 hr
- Type: ADME, organism-based
- Parameters: dose 3 mg/kg, route oral
- measurement.parameters: in vivo, po
measurement.kind: Concentration

q: Fill in: Concentration of `FC(F)(F)c1cc(CO[C@H]2CCCN(Cc3nnc[nH]3)[C@H]2c2ccccc2)cc(C(F)(F)F)c1` is ___
a: < 0.01 µg/mL

====

- Test system: Rattus norvegicus
- assay.info: Plasma concentration of 3 mg/kg iv after 0.5 hr in rats
- Assay type: ADME, organism-based
- Set-up: dose 3 mg/kg, route intravenous
- measurement.parameters: in vivo
List of Concentration values.
Return type: number; implicit unit ng/mL.

FC(F)(F)c1cc(CO[C@H]2CCCN(Cc3nnc[nH]3)[C@H]2c2ccccc2)cc(C(F)(F)F)c1	581

Now examine the next entry.
q: Fill in: Concentration of `O=c1[nH]nc(CN2CCC[C@H](OCc3cc(C(F)(F)F)cc(C(F)(F)F)c3)[C@@H]2c2ccccc2)[nH]1` is ___
a: 291

====

- Test system: Rattus norvegicus
- assay.info: Plasma concentration after 3 mg/kg peroral dosing in rat at 7.0 hr in rats
- Format: ADME, organism-based
- Set-up: dose 3 mg/kg, route oral
- measurement.parameters: in vivo, po
measurement.kind: Concentration

q: Can you look up Concentration on Rattus norvegicus for `O=c1[nH]nc(CN2CCC[C@H](OCc3cc(C(F)(F)F)cc(C(F)(F)F)c3)[C@@H]2c2ccccc2)[nH]1` ?
a: < 5 ng/mL

====

List of Concentration values.
- System: Rattus norvegicus
- assay.info: Plasma concentration of 3 mg/kg iv after 1 hr in rats
- Format: ADME, organism-based
- Design: dose 3 mg/kg, route intravenous
- measurement.parameters: in vivo
Return type: number; implicit unit ng/mL.

FC(F)(F)c1cc(CO[C@H]2CCCN(Cc3nnc[nH]3)[C@H]2c2ccccc2)cc(C(F)(F)F)c1	304

Now examine the next entry.
q: Fill in: Concentration of `O=c1[nH]nc(CN2CCC[C@H](OCc3cc(C(F)(F)F)cc(C(F)(F)F)c3)[C@@H]2c2ccccc2)[nH]1` is ___
a: 203
